Hey, just so you know, these numbers are from patent US10947188B2.

test system: HT-1080; test: Modulatory profiling: Alamar Blue viability, lethal compound cotreated with death modulator (EC50, AUC); type: cell-based; conditions: Homo sapiens, HT-1080, 48 h, HT-1080; cotreated with iron-chelator Lmim; 48 h
For each record, check the reported EC50: if it is below 10 µM write MET, else write NOT MET.

Record excerpt, results attached:
[
  {
    "COMPOUND": "O=C(CCl)N(c1ccccc1)c1c[nH]c2ccccc12 [CIL69]",
    "ASSAY_SYSTEM": "HT-1080",
    "DISCRETE_LABEL": "MET"
  },
  {
    "COMPOUND": "N/C(=N\\OC(=O)C12CC3CC(CC(C3)C1)C2)c1ccccc1 [CIL41]",
    "ASSAY_SYSTEM": "HT-1080",
    "DISCRETE_LABEL": "NOT MET"
  },
  {
    "COMPOUND": "O=C(CCl)N(c1ccc(Cl)cc1)c1c[nH]c2ccccc12 [CIL75]",
    "ASSAY_SYSTEM": "HT-1080",
    "DISCRETE_LABEL": "MET"
  },
  {
    "COMPOUND": "N/C(Cc1ccc(Cl)cc1)=N\\OC(=O)c1cccc2ccccc12 [CIL70]",
    "ASSAY_SYSTEM": "HT-1080",
    "DISCRETE_LABEL": "NOT MET"
  },
  {
    "COMPOUND": "COC(=O)[C@@H]1Cc2c([nH]c3ccccc23)C(C)(C)N1C(=O)CCl [CIL79]",
    "ASSAY_SYSTEM": "HT-1080",
    "DISCRETE_LABEL": "NOT MET"
  }
]

Pending compound:
**Q:** State whether 10 µM exceeds EC50 recorded for O=S(=O)(c1ccc2c(c1)C(=NO)c1cc(S(=O)(=O)N3CCCCC3)ccc1-2)N1CCCCC1 [CIL56] .
**A:** MET

* * *

tested on: BJeLR; experiment: Modulatory profiling: Alamar Blue viability, lethal compound cotreated with death modulator (EC50, AUC); assay type: cell-based, human; parameters: unit not given beside the values; conditions: BJeLR cells; lethal compound cotreated with modulator Co2+; modulatory profile value (AUC); also: reference of the scale not given here
ASSAY_ENDPOINT: AUC, modulator BJ.Co2+

[
  {
    "COMPOUND": "CCCCNc1c(Cl)cnn(-c2ccccc2)c1=O",
    "ASSAY_SYSTEM": "BJeLR",
    "AUC, modulator BJ.Co2+": "−0.03647"
  }
]

**Q:** Recorded AUC, modulator BJ.Co2+ for CC[C@]1(O)C[C@H]2CN(CCc3c([nH]c4ccccc34)[C@@](C(=O)OC)(c3cc4c(cc3OC)N(C=O)[C@H]3[C@@](O)(C(=O)OC)[C@H](OC(C)=O)[C@]5(CC)C=CCN6CC[C@]43[C@@H]65)C2)C1 , please?
**A:** 0.1806

**Q:** Then C=CCC1(Cl)C(=O)C(Cl)=C(n2ccnc2)C1(OC)OC (centres unmarked) ?
**A:** 0.1676

**Q:** Then C/C(=N\Nc1ncc(Cl)cc1Cl)c1ccccn1 ?
**A:** 0.9402

**Q:** Then CC1=CC(C)(C)Nc2ccc(OC(=O)c3ccco3)cc21 ?
**A:** −0.1362

**Q:** Then CC1(C)CC(=O)C2=C(C1)OC1=C(C(=O)CC(C)(C)C1)C2c1ccc(O)cc1O ?
**A:** 0.01574

**Q:** Then N/C(Cc1ccc(Cl)cc1)=N\OC(=O)c1cccc2ccccc12 ?
**A:** −0.0004925
